target_or_test_system: full-length beta-Catenin (Uniprot ID P35222) (Homo sapiens (Human)) (UniProt P35222)
Sequence (P35222 whole entry): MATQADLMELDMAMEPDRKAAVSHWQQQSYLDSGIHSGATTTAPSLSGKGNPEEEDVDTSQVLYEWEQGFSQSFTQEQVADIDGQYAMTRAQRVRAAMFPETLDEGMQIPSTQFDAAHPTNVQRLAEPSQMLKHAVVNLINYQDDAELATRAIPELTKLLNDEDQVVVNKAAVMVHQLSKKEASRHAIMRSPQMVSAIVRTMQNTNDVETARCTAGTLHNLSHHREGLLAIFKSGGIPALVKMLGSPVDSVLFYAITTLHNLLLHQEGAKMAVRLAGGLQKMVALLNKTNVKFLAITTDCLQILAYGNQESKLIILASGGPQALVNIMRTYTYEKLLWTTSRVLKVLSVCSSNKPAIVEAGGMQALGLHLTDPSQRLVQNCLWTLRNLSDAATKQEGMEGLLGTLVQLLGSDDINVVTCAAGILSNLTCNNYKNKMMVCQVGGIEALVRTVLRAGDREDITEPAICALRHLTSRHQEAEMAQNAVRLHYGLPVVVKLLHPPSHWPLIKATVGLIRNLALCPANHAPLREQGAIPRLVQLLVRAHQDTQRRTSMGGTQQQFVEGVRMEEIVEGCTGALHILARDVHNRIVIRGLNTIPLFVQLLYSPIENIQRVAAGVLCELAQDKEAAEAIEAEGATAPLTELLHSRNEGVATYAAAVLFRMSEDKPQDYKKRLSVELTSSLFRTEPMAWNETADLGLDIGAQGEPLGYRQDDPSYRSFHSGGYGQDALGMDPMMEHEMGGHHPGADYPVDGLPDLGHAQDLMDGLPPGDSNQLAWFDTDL
test: fluorescence polarization competition; full-length beta-catenin, competitor 5FAM-TCF4(10-53) probe
Starred links: 1 amine or outer side, 2 acyl side, 3 side chain; linkers in the order of their positions; H or OH if unused. Positions of bridges follow the written chain, without caps; N, C: chain ends. Non-standard residues stand in square brackets, D forms with d. Primed or numbered codes have the meaning given here. *: point of attachment. PyrS2″ = (S)-3-amino-1-((pent-4-en-1-yloxy)carbonyl)pyrrolidine-3-carboxylic acid (stapling residue), C=CCCCOC(=O)N1CC[C@@](N[*:1])(C(=O)[*:2])C1; B5(5) = 2,2-bis(4-pentenyl)glycine, 2-amino-2-(pent-4-en-1-yl)hept-6-enoic acid (stitching residue), C=CCCCC(CCCC=C)(N[*:1])C(=O)[*:2]; PyrS2 = (S)-3-amino-1-((pent-4-en-1-yloxy)carbonyl)pyrrolidine-3-carboxylic acid, C=CCCCOC(=O)N1CC[C@@](N[*:1])(C(=O)[*:2])C1; B5(3) = 2,2-bis(4-pentenyl)glycine (stitching residue), C=CCCCC(CCCC=C)(N[*:1])C(=O)[*:2]; Phe(2-Cl) = N[C@@H](Cc1ccccc1Cl)C(=O)O; Bta = N[C@@H](Cc1csc2ccccc12)C(=O)O; αAllylPro = C=CC[C@@]1(C(=O)O)CCCN1; Azidoacetyl = [N-]=[N+]=NCC(=O)*; tBuAla = CC(C)(C)C[C@H](N)C(=O)O; 3Thi = N[C@@H](Cc1ccsc1)C(=O)O
I'd appreciate it if you could supply pEC50 values for the items below.
Answers are plain numbers, as −log10 of the molar value.

Some binders with recorded pEC50:
>  <binder>
Azidoacetyl-[αAllylPro]D[tBuAla][B5(5)]DDAAFT[PyrS2][Phe(2-Cl)][Bta][dT]-NH2 (staple 1-4, 4-11) [I-1060]

>  <pEC50>
7.42

$$$$
>  <binder>
Ac-[αAllylPro]D[tBuAla][B5(3)]DEAAFL[PyrS2″][Phe(2-Cl)][Bta]S-NH2 (staple 1-4, 4-11; not fully specified; printed as Ac-PL3-Asp-Npg-B5-Asp-Glu-Ala-Ala-Phe-Leu-PyrS2-2C1F-BztA-Ser-NH2) [I-1066]

>  <pEC50>
6.10

$$$$

Shift focus to the following entry.
# pEC50 of Azidoacetyl-[αAllylPro]D[tBuAla][B5(5)]DDAAFN[PyrS2][3Thi][Bta][dT]-NH2 (staple 1-4, 4-11) [I-1058] = 7.85
